List of pKi values.
# experimental system: human adenosine A1 receptor (Homo sapiens, UniProt P30542)
# assay remarks: Adenosine A1 Receptor Functional Assay (A1GAL2)
# assay conditions: CHO-K1 cells overexpressing human A1, cAMP inducible beta-galactosidase reporter, 4 nM r-PIA/1 uM Forskolin challenge
# pKi = -log10(concentration in molar units)

1. N#Cc1cccc(-c2nc(N)c3cc(CCc4ccccn4)sc3n2)c1; 6.33

N#Cc1cccc(-c2nc(N)c3cc(C(O)c4cccnc4N4CCCCC4)sc3n2)c1 (stereo not drawn) has a reported pKi of 6.56

// pKi lookup, compound = Nc1nc(-c2ccccc2)nc2sc(Cc3ccc(Cl)nc3)cc12 , result: 6.36

Per the records, this compound ( COc1cccc(C(O)c2cc3c(N)nc(-c4cccc(C#N)c4)nc3s2)n1 (stereo not drawn) ) has pKi equal to 6.82

* * *

Here the recorded pKi is given for each entry.
# experimental system: human adenosine A1 receptor (Homo sapiens, UniProt P30542)
# assay remarks: Adenosine A1 Receptor Functional Assay (A1GAL2)
# assay conditions: CHO-K1 cells overexpressing human A1, cAMP inducible beta-galactosidase reporter, 4 nM r-PIA/1 uM Forskolin challenge
Kindly note that pKi refers to -log10 of the concentration in mol/L and answer with the value alone.

Known results for compounds:
1) N#Cc1cccc(-c2nc(N)c3cc(Cc4ncccc4F)sc3n2)c1; 7.52
2) N#Cc1cccc(-c2nc(N)c3cc(C(O)c4ccncc4Cl)sc3n2)c1 (stereo not drawn); 6.38

Could you now consider this next compound?
Lookup result for N#Cc1cccc(-c2nc(N)c3cc(C(O)c4cccnc4N4CCOCC4)sc3n2)c1 (stereo not drawn) ; measured pKi: 6.35

* * *

# experimental system: human adenosine A1 receptor (Homo sapiens)
# Sequence (P30542 1-326): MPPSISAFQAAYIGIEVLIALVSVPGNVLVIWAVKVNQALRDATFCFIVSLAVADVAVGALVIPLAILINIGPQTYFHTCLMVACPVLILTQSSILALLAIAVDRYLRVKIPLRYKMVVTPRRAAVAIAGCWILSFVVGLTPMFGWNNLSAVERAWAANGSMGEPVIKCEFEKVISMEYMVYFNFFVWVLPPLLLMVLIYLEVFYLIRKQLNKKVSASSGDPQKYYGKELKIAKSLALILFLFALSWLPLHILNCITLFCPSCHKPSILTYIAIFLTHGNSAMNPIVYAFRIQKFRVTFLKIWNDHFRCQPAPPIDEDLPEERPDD
# assay remarks: Adenosine A1 Receptor Functional Assay (A1GAL2)
# assay conditions: CHO-K1 cells overexpressing human A1, cAMP inducible beta-galactosidase reporter, 4 nM r-PIA/1 uM Forskolin challenge
quantity name: pKi
pKi here is simply -log10 of the concentration when that concentration is written in mol/L.

Examples from the recorded data:
1. N#Cc1cccc(-c2nc(N)c3cc(C(O)c4ccccn4)sc3n2)c1 (centres unmarked); 6.82
2. N#Cc1cccc(-c2nc(N)c3cc(C(O)c4cccnc4N4CCCC4)sc3n2)c1 (centres unmarked); 5.89
3. Nc1nc(-c2ccccc2)nc2sc(Cc3ccccn3)cc12; 7.31
4. N#Cc1cccc(-c2nc(N)c3cc(Cc4cccnc4N4CCOCC4)sc3n2)c1; 6.23

For the compound N#Cc1cccc(-c2nc(N)c3cc(C(O)c4cccnc4F)sc3n2)c1 (centres unmarked) , the measured pKi on human adenosine A1 receptor (Homo sapiens) was 6.84
